assay_readout: melting point

CC(=O)Nc1nc(=O)n(C(=O)NCc2ccc(Cl)cc2)cc1F; 170 to 172 °C
Nc1nc(=O)n(C(=O)Nc2ccc3ccccc3c2)cc1F; 273 to 275 °C
O=C(Nc1cccc(Cl)c1)n1cc(F)c(NCc2ccccc2F)nc1=O; 158 to 160 °C
CCCNC(=O)n1cc(F)c(NC(C)=O)nc1=O; 233 to 235 °C
CCCNC(=O)n1cc(F)c(NCc2ccccc2F)nc1=O; 113 to 116 °C
Nc1nc(=O)n(C(=O)Nc2ccc3sccc3c2)cc1F; 282 to 284 °C
CN(C(=S)n1cc(F)c(N)nc1=O)c1ccccc1; 192 to 196 °C
Nc1nc(=O)n(C(=O)Nc2ccc(Cl)cc2)cc1F; 261 to 264 °C
CCCNC(=O)n1cc(F)c(NC(=O)c2ccccc2Cl)nc1=O; 239 to 241 °C

Then this molecule:
Field request: melting point | item: CCCNC(=O)n1cc(F)c(/N=C/N(C)C)nc1=O
266 to 268 °C

###

Answer each item with its documented melting point.

In the examples that follow, each entry is paired with its recorded melting point.
Cc1ccc(NC(=O)n2cc(F)c(N)nc2=O)cc1; 257 to 260 °C
Cn1ccc2cc(NC(=O)n3cc(F)c(N)nc3=O)ccc21; 268 to 270 °C
CCNC(=O)n1cc(F)c(NC(=O)c2ccccc2)nc1=O; 249 to 251 °C
COc1cccc(NC(=O)n2cc(F)c(N)nc2=O)c1; 242 to 244 °C
O=C(Nc1ccccc1)n1cc(F)c(NCc2ccccc2F)nc1=O; 154 to 157 °C

Provide melting point values for the following items, in order.
1. CN(C(=S)n1cc(F)c(N)nc1=O)c1cc(Cl)cc(Cl)c1
2. CCCCCNC(=O)n1cc(F)c(N)nc1=O
3. CCNC(=O)n1cc(F)c(NC(=O)NCc2ccccc2OC)nc1=O

["200 to 203 °C", "289 to 292 °C", "248 to 250 °C"]

###

Answer each item with its documented pest or weed control at 100 ppm.
# Tested on: Mycosphaerella graminicola; Anamorph: Septoria tritici; Bayer Code SEPTTR
# test_summary: Evaluation of fungicidal activity: leaf blotch of wheat (SEPTTR), wheat plants variety Yuma
# Assay type: in vivo
# condition_info: Zymoseptoria tritici, 24 h; One-Day Protectant (1DP), 100 ppm, wheat plants, percent control vs untreated inoculated plants; read-out: SEPTTR 100 PPM 1DP (% Disease Control rating)

In the examples that follow, each entry is paired with its recorded pest or weed control at 100 ppm.
COc1ccccc1NC(=O)n1cc(F)c(N)nc1=O [Compound 7]; 76 to 100%
Nc1nc(=O)n(C(=O)NC2CCCC2)cc1F [Compound 5]; 76 to 100%
Nc1nc(=O)n(C(=O)Nc2cccc(Cl)c2)cc1F [Compound 14]; 76 to 100%
Nc1nc(=O)n(C(=O)Nc2ccc3sccc3c2)cc1F [Compound 19]; 76 to 100%
CCCNC(=O)n1cc(F)c(NC(=O)C(C)C)nc1=O [Compound 41]; 76 to 100%

Provide pest or weed control at 100 ppm values for the following items, in order.
1. CCN(C(=S)n1cc(F)c(N)nc1=O)c1ccccc1 [Compound 37]
2. CCN(CC)C(=S)n1cc(F)c(/N=C/N(C)C)nc1=O [Compound 33]
3. Cn1ccc2cc(NC(=O)n3cc(F)c(N)nc3=O)ccc21 [Compound 18]
4. Nc1nc(=O)n(C(=O)Nc2ccccc2Cl)cc1F [Compound 8]
5. CN(C(=S)n1cc(F)c(N)nc1=O)c1ccccc1 [Compound 34]
6. CSCCNC(=O)n1cc(F)c(N)nc1=O [Compound 26]
7. CCCCCNC(=O)n1cc(F)c(NC(=O)NCc2ccccc2OC)nc1=O [Compound 52]

1: 76 to 100%; 2: 0 to 25%; 3: 76 to 100%; 4: 76 to 100%; 5: 76 to 100%; 6: 76 to 100%; 7: 0 to 25%
